// provenance: paper PMC6010526

target: porcine DPP-IV (Sus scrofa)
Sequence (P22411 whole entry): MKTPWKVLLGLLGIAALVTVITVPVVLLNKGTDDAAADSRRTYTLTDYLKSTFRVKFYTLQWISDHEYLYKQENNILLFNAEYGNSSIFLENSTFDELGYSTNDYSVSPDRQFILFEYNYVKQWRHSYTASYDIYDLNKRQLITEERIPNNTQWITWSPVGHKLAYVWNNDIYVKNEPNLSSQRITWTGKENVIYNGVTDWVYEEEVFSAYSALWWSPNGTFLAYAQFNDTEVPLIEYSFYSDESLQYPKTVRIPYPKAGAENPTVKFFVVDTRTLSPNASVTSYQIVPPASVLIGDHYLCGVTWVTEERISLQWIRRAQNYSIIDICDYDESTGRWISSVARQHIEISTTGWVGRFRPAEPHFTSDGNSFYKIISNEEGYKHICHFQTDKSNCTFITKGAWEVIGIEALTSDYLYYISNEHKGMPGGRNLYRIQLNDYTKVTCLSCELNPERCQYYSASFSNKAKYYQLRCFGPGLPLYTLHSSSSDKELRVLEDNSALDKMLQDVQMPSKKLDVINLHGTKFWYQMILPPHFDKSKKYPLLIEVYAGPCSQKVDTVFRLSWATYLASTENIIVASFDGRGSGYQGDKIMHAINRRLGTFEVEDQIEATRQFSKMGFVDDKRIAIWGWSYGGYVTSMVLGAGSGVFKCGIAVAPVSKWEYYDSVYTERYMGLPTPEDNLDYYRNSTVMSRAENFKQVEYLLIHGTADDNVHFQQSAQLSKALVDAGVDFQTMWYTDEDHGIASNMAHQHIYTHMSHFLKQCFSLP
Residues, ends and D or L forms follow the SMILES beside them.
Readout Type: IC50 (µM)

CC[C@H](C)[C@H](N)C(=O)N1CCC[C@H]1C(=O)N[C@@H](Cc1ccccc1)C(=O)O [IPF, Ile-Pro-Phe] (H-Ile-Pro-Phe-OH; N-terminus and C-terminus assumed) : 47.3

[a] N[C@@H](Cc1ccccc1)C(=O)N1CCC[C@H]1C(=O)N[C@@H](Cc1ccccc1)C(=O)O [FPF, Phe-Pro-Phe] (H-Phe-Pro-Phe-OH; N-terminus and C-terminus assumed)
[b] N[C@@H](Cc1c[nH]c2ccccc12)C(=O)N1CCC[C@H]1C(=O)N[C@@H](Cc1c[nH]c2ccccc12)C(=O)O [WPW, Trp-Pro-Trp] (H-Trp-Pro-Trp-OH; N-terminus and C-terminus assumed)
[c] C[C@H](N)C(=O)N1CCC[C@H]1C(=O)N[C@@H](C)C(=O)O [APA, Ala-Pro-Ala] (H-Ala-Pro-Ala-OH; N-terminus and C-terminus assumed)
[d] CC[C@H](C)[C@H](N)C(=O)N1CCC[C@H]1C(=O)N[C@@H](C)C(=O)O [IPA, Ile-Pro-Ala] (H-Ile-Pro-Ala-OH; N-terminus and C-terminus assumed)
[e] C[C@H](N)C(=O)N1CCC[C@H]1C(=O)N[C@@H](Cc1ccccc1)C(=O)O [APF, Ala-Pro-Phe] (H-Ala-Pro-Phe-OH; N-terminus and C-terminus assumed)
Challenge: Sort ascending by IC50. Please list the labels in the order you were asked to rank them.
Response given: d, c, e, b, a
